# measurement.notes: clinical;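 note: pharmacokinetic parameters derived by non-compartmental analysis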
# test.parameters: human, in vivo, 200 mg
metric: Cmax (ng/mL)

| molecule | metric | observed.result |
| --- | --- | --- |
| C#Cc1cccc(Nc2ncnc3cc(OCCOC)c(OCCOC)cc23)c1 [erlotinib] | Cmax | 2650 |

###

# measurement.notes: clinical
# test.parameters: human, in vivo, 275 mg
metric: Tmax (h)

| smiles.entry | observed.result |
| --- | --- |
| C#Cc1cccc(Nc2ncnc3cc(OCCOC)c(OCCOC)cc23)c1 | 1 |

###

# measurement.notes: clinical
# test.parameters: human, in vivo, 150 mg
metric: Tmax (h)

| smiles.entry | metric | unit.string | observed.result |
| --- | --- | --- | --- |
| C#Cc1cccc(Nc2ncnc3cc(OCCOC)c(OCCOC)cc23)c1 | Tmax | h | 2 |

###

# measurement.notes: clinical
# test.parameters: human, in vivo, 225 mg
metric: Tmax (h)

| smiles.entry | unit.string | observed.result |
| --- | --- | --- |
| C#Cc1cccc(Nc2ncnc3cc(OCCOC)c(OCCOC)cc23)c1 | h | 2 |
